Target: T1, EsCas13d, nuclease-dead (Eubacterium siraeum, UniProt B0MS50, R295A;H300A;R849A;H854A)
T1 sequence: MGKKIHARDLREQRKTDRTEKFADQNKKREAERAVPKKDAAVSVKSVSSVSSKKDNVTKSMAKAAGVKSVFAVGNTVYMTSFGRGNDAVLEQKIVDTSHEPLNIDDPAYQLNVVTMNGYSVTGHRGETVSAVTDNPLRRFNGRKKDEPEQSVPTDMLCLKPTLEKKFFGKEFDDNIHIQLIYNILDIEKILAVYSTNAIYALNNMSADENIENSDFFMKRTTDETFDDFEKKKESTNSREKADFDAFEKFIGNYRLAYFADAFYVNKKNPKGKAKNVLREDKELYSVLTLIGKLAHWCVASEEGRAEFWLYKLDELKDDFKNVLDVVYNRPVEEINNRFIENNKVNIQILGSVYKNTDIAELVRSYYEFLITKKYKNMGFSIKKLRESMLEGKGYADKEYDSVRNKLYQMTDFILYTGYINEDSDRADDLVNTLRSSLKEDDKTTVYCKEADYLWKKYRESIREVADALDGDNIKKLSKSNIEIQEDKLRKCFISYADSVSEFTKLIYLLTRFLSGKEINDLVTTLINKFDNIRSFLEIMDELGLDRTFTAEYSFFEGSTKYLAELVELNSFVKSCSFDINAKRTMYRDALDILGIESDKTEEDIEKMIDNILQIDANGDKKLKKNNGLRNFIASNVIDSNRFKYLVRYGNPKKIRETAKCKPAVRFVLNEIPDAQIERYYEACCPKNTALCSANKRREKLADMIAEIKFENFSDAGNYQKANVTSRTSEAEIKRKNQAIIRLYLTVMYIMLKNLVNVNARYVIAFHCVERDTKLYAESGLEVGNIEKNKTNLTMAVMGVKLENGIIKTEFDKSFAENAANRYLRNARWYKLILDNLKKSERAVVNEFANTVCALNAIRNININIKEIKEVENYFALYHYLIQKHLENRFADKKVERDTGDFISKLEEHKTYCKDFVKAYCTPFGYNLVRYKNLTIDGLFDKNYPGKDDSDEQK
Assay: crRNA (strand 1, pre-loaded); Mg2+; 40 mM Tris-HCl pH 7.5, 150 mM NaCl, 6 mM MgCl2, 1 mM DTT, 0.1% Tween-20, 0.2 mg/ml BSA; 25 C; 10 min per concentration, then washed
Conditions: tags: His6-TwinStrep-SUMO cleaved; N-terminal SNAP kept (SNAP-Surface 488); label: 3' end held by stalled T7 RNA polymerase
Parameter: Kd. Scope: all listed entries.

Here are 3 binders together with their reported answers.
>  <binder>
target 1 MT 5'PFS AGG 3'PFS CGA (mixed) RNA 1: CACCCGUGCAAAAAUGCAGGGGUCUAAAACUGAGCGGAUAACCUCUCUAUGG RNA 2: GGGAAUGGAUCCACAUCUACGAAUUCAGGCCAUAGAGAGGUUAUCCGCUCACGAAGAUCGGAAGAGCACACGU

>  <Kd>
~73 nM

$$$$
>  <binder>
target 2 MT 5'PFS AUC 3'PFS CUA (mixed) RNA 1: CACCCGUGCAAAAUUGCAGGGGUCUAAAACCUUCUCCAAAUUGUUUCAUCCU RNA 2: GGGAAUGGAUCCACAUCUACGAAUUCAUCAGGAUGAAACAAUUUGGAGAAGCUAAGAUCGGAAGAGCACACGU

>  <Kd>
~90 nM

$$$$
>  <binder>
target 1 MT 5'PFS GAA 3'PFS AAC (mixed) RNA 1: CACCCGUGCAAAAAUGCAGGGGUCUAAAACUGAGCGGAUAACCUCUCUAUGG RNA 2: GGGAAUGGAUCCACAUCUACGAAUUCGAACCAUAGAGAGGUUAUCCGCUCAAACAGAUCGGAAGAGCACACGU

>  <Kd>
~47 nM

$$$$

Turning now to a further binder:
# input binder: target 2 MT 5'PFS UGA 3'PFS UCC (mixed) RNA 1: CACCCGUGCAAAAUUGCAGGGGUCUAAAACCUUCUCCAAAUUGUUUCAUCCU RNA 2: GGGAAUGGAUCCACAUCUACGAAUUCUGAAGGAUGAAACAAUUUGGAGAAGUCCAGAUCGGAAGAGCACACGU ; wanted: its Kd
~49 nM
